test.name: Toxicity in iv dosed mouse
Assay type: organism-based
condition.parameters: in vivo
measurement.label: LD50 (mg/kg)
Answer format: numeric, mg/kg implied, no suffix.

Return LD50 for the following compound: N=C(N)NCCCC1NCCc2c1[nH]c1ccccc21 (stereo unspecified) [TRYPARGINE]
16.9
